Measured AC50, listed per entry for reference.
biological target: POLγ W748S + E1143G (Homo sapiens, UniProt P54098, E1143G/W748S); assay: DNA polymerization assay, W748S + E1143G mutant; assay type: biochemical; settings: stimulation of polymerase activity, primed M13mp18 ssDNA, 37° C. 2 hours
Sequence (P54098 whole entry W748S/E1143G): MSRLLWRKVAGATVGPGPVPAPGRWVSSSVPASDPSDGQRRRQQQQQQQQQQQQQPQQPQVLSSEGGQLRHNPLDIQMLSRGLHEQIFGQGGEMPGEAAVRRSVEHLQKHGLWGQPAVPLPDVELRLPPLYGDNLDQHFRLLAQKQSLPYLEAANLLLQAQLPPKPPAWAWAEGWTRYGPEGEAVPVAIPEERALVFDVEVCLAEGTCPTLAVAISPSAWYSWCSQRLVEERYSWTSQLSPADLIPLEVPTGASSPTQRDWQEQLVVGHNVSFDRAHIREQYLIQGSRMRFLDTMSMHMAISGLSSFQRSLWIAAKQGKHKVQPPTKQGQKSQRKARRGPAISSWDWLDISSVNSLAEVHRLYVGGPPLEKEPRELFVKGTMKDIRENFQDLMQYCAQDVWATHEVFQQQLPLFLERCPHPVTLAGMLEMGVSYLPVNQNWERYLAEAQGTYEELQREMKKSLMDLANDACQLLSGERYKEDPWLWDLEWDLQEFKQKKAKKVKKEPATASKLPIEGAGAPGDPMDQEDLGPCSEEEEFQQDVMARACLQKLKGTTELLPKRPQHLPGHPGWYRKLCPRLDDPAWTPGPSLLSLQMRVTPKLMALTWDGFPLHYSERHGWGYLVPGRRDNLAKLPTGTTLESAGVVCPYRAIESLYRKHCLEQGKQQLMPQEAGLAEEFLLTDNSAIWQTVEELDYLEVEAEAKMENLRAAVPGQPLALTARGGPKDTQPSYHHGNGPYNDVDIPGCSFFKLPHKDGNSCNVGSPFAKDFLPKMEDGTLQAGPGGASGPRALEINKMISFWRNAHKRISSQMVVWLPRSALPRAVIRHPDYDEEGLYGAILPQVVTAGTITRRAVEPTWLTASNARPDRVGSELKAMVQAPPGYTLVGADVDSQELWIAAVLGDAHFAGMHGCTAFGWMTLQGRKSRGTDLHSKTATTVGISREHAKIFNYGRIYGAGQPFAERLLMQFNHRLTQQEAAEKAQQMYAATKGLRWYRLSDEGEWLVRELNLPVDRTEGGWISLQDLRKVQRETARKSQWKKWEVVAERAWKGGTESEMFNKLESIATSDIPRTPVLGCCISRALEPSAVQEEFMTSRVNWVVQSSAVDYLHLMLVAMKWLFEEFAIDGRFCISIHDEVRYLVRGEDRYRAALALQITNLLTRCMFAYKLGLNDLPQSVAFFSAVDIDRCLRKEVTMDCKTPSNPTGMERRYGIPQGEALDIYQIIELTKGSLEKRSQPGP
Sequence (Q9UHN1 whole entry partner): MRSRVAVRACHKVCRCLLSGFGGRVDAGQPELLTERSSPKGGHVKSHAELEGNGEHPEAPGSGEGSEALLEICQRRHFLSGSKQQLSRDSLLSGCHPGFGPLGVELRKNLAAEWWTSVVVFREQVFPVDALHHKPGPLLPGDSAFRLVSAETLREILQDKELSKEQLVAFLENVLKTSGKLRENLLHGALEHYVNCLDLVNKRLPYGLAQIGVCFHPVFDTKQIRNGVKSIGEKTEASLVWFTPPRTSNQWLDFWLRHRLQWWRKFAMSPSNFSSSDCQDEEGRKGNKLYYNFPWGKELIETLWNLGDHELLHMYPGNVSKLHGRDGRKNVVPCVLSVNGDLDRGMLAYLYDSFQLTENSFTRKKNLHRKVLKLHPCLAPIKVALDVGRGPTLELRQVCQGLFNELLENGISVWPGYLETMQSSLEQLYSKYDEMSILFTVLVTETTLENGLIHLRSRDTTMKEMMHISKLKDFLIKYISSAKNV
Numeric answer only, unit nM assumed.

Reference set, count: 4
>>> measured_number("Cc1cc(S(=O)(=O)Nc2cc(-c3nccs3)ccc2F)c(C)cc1Cl")
700
>>> measured_number("Cc1cnc(-c2cccc(NS(=O)(=O)c3cc(C)c(Cl)cc3C)c2)s1")
3000
>>> measured_number("Cc1cc(S(=O)(=O)Nc2csc(-c3cnn(C)c3)n2)c(C)cc1Cl")
700
>>> measured_number("Cc1cc(S(=O)(=O)Nc2cccc(-c3cc(C4CC4)[nH]n3)c2)c(C)cc1Cl")
4000

Note: attention shifts to another entry.
Q) Return reported AC50. Input molecule: Cc1cc(S(=O)(=O)Nc2cccc(-c3ncc(C#N)s3)c2)c(C)cc1Cl
A) 2000
